The entries below come with measured pIC50 values attached.
- measured-on: Protein deacetylase HDAC6 (Homo sapiens, UniProt Q9UBN7)
- Sequence (Q9UBN7 whole entry): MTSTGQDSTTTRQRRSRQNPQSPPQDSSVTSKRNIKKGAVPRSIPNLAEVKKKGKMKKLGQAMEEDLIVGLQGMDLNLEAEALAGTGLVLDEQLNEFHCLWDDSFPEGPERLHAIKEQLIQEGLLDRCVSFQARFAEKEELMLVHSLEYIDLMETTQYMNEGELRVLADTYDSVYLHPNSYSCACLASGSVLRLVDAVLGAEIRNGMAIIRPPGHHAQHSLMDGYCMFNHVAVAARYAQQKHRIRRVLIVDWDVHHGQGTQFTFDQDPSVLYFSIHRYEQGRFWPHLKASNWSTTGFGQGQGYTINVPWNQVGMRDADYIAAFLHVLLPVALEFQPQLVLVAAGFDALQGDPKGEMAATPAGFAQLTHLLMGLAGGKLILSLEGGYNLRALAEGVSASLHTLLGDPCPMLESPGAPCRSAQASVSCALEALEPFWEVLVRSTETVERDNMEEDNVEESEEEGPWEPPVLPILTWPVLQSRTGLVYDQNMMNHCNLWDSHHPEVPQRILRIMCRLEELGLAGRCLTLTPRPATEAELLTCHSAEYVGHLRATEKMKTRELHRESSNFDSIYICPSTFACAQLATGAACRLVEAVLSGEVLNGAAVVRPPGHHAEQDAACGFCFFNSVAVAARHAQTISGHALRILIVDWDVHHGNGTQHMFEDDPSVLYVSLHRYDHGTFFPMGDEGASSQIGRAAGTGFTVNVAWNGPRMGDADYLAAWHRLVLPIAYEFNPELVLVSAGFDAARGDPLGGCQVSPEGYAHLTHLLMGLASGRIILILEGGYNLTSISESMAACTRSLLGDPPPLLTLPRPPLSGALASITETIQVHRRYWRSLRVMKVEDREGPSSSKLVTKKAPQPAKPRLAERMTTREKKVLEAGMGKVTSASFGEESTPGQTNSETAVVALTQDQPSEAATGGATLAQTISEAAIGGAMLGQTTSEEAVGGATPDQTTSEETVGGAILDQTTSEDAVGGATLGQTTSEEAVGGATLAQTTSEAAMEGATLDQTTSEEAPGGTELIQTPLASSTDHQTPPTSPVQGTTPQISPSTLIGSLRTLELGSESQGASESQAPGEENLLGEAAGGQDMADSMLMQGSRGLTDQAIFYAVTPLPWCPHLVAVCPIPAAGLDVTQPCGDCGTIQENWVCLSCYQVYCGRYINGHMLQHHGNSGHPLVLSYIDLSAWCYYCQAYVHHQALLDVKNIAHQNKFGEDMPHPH
pIC50 here is simply -log10 of the concentration when that concentration is written in mol/L.

item-smiles: Cc1nc2c(c(N(C)c3ccc(OCCCCC(=O)NO)cc3)n1)CCC2
pIC50: 7.20

item-smiles: CN(c1ccc(OCC(=O)NO)cc1)c1ncnc2ccccc12
pIC50: 7.85

Data request, read-out pIC50, for COc1ccc(N(C)c2nc(C)nc3ccccc23)cc1OCCCCC(=O)NO
6.95

Recorded pIC50 of Cc1nc2c(c(N(C)c3ccc(OCC(=O)NO)cc3)n1)CCC2 , please.
7.77
